- System: FAP-expressing HEK293T:hFAP tumor xenografts
- PROCEDURE SUMMARY: Ex vivo biodistribution in HEK293T:hFAP tumor-bearing mice
- EXPERIMENTAL CONTEXT: 1 h post injection, mean ± SD, n = 4
MEASURE: Tumor/muscle uptake ratio
Just the number, please.

COMPOUND: N#C[C@@H]1CC(F)(F)CN1C(=O)CNC(=O)c1ccnc2ccc(OCc3cn(CC(=O)N[C@@H](CCCCNC(=O)CN4CCN(CC(=O)[O-])CCN(CC(=O)[O-])CCN(CC(=O)[O-])CC4)C(=O)NCC(=O)NC[C@H]4CC[C@H](C(=O)N[C@@H](Cc5c6ccccc6cc6ccccc56)C(=O)NCCCC[C@H](NC(=O)N[C@@H](CCC(=O)O)C(=O)O)C(=O)O)CC4)nn3)cc12.[68Ga+3] [[^68Ga]Ga-AV01038]
Tumor/muscle uptake ratio: 2.21

Input line: Any idea what Tumor/muscle uptake ratio was measured for N#C[C@@H]1CC(F)(F)CN1C(=O)CNC(=O)c1ccnc2ccc(OCCCc3cn(CC(=O)N[C@@H](CCCCNC(=O)CN4CCN(CC(=O)[O-])CCN(CC(=O)[O-])CCN(CC(=O)[O-])CC4)C(=O)NCC(=O)NC[C@H]4CC[C@H](C(=O)N[C@@H](Cc5c6ccccc6cc6ccccc56)C(=O)NCCCC[C@H](NC(=O)N[C@@H](CCC(=O)O)C(=O)O)C(=O)O)CC4)nn3)cc12.[68Ga+3] [[^68Ga]Ga-AV01017] ?
Output line: 1.25

Input line: Any idea what Tumor/muscle uptake ratio was measured for O=C([O-])CN1CCN(CC(=O)[O-])CCN(CC(=O)NC[C@H]2CC[C@H](C(=O)N[C@@H](Cc3c4ccccc4cc4ccccc34)C(=O)NCCCC[C@H](NC(=O)N[C@@H](CCC(=O)O)C(=O)O)C(=O)O)CC2)CCN(CC(=O)[O-])CC1.[68Ga+3] [[^68Ga]Ga-HTK03041, reference compound] ?
Output line: 1.22

Input line: Any idea what Tumor/muscle uptake ratio was measured for N#C[C@@H]1CC(F)(F)CN1C(=O)CNC(=O)c1ccnc2ccc(OCCCN3CCN(C(=O)CN4CCN(CC(=O)[O-])CCN(CC(=O)[O-])CCN(CC(=O)[O-])CC4)CC3)cc12.[68Ga+3] [[^68Ga]Ga-FAPI-04, reference compound] ?
Output line: 18.8

Input line: Any idea what Tumor/muscle uptake ratio was measured for N#C[C@@H]1CC(F)(F)CN1C(=O)CNC(=O)c1ccnc2ccc(-c3cn(CC(=O)N[C@@H](CCCCNC(=O)CN4CCN(CC(=O)[O-])CCN(CC(=O)[O-])CCN(CC(=O)[O-])CC4)C(=O)NCC(=O)NC[C@H]4CC[C@H](C(=O)N[C@@H](Cc5c6ccccc6cc6ccccc56)C(=O)NCCCC[C@H](NC(=O)N[C@@H](CCC(=O)O)C(=O)O)C(=O)O)CC4)nn3)cc12.[68Ga+3] [[^68Ga]Ga-AV01030] ?
Output line: 2.12
